Entry source: ChEMBL document CHEMBL2384907

Test System: UniProt:O00206
Sequence (O00206 whole entry): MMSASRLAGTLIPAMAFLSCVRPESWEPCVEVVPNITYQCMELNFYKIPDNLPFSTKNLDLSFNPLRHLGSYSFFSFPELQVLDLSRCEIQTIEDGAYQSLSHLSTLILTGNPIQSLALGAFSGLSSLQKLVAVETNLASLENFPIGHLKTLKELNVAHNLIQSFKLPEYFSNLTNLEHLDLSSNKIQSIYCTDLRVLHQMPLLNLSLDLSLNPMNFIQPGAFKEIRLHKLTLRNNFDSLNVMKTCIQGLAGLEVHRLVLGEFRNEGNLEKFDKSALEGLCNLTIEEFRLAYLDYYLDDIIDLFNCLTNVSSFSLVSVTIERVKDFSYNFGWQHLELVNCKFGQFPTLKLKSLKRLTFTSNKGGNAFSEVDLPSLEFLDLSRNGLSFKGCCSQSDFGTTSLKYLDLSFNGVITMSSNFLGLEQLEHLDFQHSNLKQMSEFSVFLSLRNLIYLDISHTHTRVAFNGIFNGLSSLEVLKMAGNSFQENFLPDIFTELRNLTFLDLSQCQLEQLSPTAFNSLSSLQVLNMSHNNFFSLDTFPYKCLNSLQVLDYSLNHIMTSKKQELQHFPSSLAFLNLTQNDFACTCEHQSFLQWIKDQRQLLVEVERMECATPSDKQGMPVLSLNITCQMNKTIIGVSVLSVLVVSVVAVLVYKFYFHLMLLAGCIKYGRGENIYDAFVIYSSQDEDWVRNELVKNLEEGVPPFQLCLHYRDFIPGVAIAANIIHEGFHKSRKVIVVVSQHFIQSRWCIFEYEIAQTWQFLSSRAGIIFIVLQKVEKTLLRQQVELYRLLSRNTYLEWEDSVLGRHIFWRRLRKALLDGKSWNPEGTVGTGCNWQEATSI
Measurement Description: Activation of human TLR4 transfected in HEK293 cells after 18 hrs by SEAP assay relative to N-cyclohexyl-2-(4-oxo-3-phenyl-4,5-dihydro-3H-pyrimido[5,4-b]indol-2-ylthio)acetamide
Type: cell-based
Set-up: concentration or dose not given beside the values
Measurement Type: Activity (%)

(a) NC(=O)Cn1c2ccccc2c2nc(SCC(=O)NC3CCCCC3)n(-c3ccccc3)c(=O)c21
(b) O=C(CSc1nc2c([nH]c3ccccc32)c(=O)n1-c1ccccc1)NC1CCCCCC1
Form field 'greater Activity' accepts a or b ; which applies? Please reply using the label of the selected record.
b
(b: 100%, a: 11%)

(a) CCCCCn1c2ccccc2c2nc(SCC(=O)NC3CCCCC3)n(-c3ccccc3)c(=O)c21
(b) CC(C)CCNC(=O)CSc1nc2c([nH]c3ccccc32)c(=O)n1-c1ccccc1
Record comparison, field Activity: mark the lower of a and b . Please reply using the label of the selected record.
a
